# System: DeltatarO mutant
# experimental_details: S. aureus survival, RN4220 and DeltatarO strains – OD600, teichoic acid synthesis inhibitors, primary screen (AID 463173)
# run_conditions: S. aureus RN4220 wild type/DeltatarO growth, OD600, 18 h, hits give low values, screened at 18.75 µg/mL (by protocol)
The whole screen tested about 52,000 compounds, of which about 4,300 (8.3%) were called active. This is one part of a sample in which actives are shown more often than they occur.
# survival per record follows
property_measured: survival (%)

>>> measured_value("COc1ccc(NC(=O)CCCS(=O)(=O)c2nc(-c3ccccc3OC)cc(C(F)(F)F)n2)c(OC)c1")
46
>>> measured_value("COc1ccccc1-c1cc(C(F)(F)F)nc(S(=O)(=O)CCCC(=O)Nc2ccc(F)c(Cl)c2)n1")
87
>>> measured_value("O=C(CCS(=O)(=O)c1nc(-c2cccs2)cc(C(F)(F)F)n1)Nc1cc(Br)ccc1O")
15
>>> measured_value("Cc1ccc2c(c1)c1c3n2CCN(C(=O)Cn2c(-c4ccccc4)noc2=O)C3CCC1 (stereo not given)")
90
>>> measured_value("COc1ccccc1-c1cc(C(F)(F)F)nc(S(=O)(=O)CCCC(=O)Nc2cc(OC)c(OC)c(OC)c2)n1")
134

---

# System: DeltatarO mutant
# experimental_details: S. aureus survival, RN4220 and DeltatarO strains – OD600, teichoic acid synthesis inhibitors, primary screen (AID 463173)
# run_conditions: S. aureus RN4220 wild type/DeltatarO growth, OD600, 18 h, hits give low values, screened at 18.75 µg/mL (by protocol)
The whole screen tested about 52,000 compounds, of which about 4,300 (8.3%) were called active. This is one part of a sample in which actives are shown more often than they occur.
Classes (survival): 0: < 50%; 1: ≥ 50% and < 80%; 2: ≥ 80%

>>> class("Cc1ccc(NC(=O)c2c(NC(=O)Cc3ccccc3)sc3c2CCC3)cc1")
0
>>> class("COC(=O)CN(C#N)c1nc(C)cc(C)n1")
2
>>> class("CNC(=O)CN(C#N)c1nc(N(C)C)nc(N(C)C)n1")
2
>>> class("CC(C)(C)NC(=O)CSc1nc(-c2ccc(F)cc2)cc(C(F)(F)F)n1")
1
>>> class("CCOc1ccc(NC(=O)c2c(NC(=O)Cc3ccccc3)sc3c2CCCCC3)cc1")
0
>>> class("O=C(CC1COc2ccccc2O1)NCCc1ccccc1 (centres undefined)")
2
>>> class("O=C(Cc1ccccc1)Nc1sc2c(c1C(=O)Nc1ccc(Br)cc1)CCCC2")
1
>>> class("CCOc1ccc(C2c3c(oc4ccccc4c3=O)C(=O)N2Cc2ccc3c(c2)OCO3)cc1 (centres undefined)")
0
>>> class("COc1ccc(Cn2ccc3nc(C)c(C(=O)N4CCN(c5ccccc5)CC4)cc3c2=O)cc1")
2
>>> class("Cc1nn(-c2nc(-c3ccc(F)cc3)cc(C(F)(F)F)n2)c(C)c1Cl")
0
>>> class("COC(=O)c1ccc(C2c3c(oc4ccccc4c3=O)C(=O)N2c2nc(C)c(C(=O)OC)s2)cc1 (centres undefined)")
1
>>> class("O=C(O)c1ccc(CNCc2ccccc2Cl)s1")
2
>>> class("COc1ccc(CCNC(=O)C(=O)NCC(c2ccco2)S(=O)(=O)c2ccc(C)cc2)cc1 (centres undefined)")
2
>>> class("CC(=O)c1cc(C(=O)Nc2cc(C)cc(C)c2)c2ccccn12")
0
>>> class("COc1ccc(NC(=O)N(Cc2nnc3n2CCCCC3)c2ccc(OC)c(Cl)c2)cc1")
1
>>> class("CCOc1ccc(NC(=O)c2c(NC(=O)Cc3ccccc3)sc3c2CCCC3)cc1")
0
>>> class("COc1ccccc1-c1cc(C(=O)Nc2ccccc2C(F)(F)F)no1")
1
>>> class("CCC(=O)N1CCc2cc(Br)cc(S(=O)(=O)N3CCC(C(=O)NC(C)(C)C)CC3)c21")
2
>>> class("CCC(=O)N1CCc2cc(Br)cc(S(=O)(=O)N3CCC(C(=O)Nc4ccc(OC)cc4)CC3)c21")
0
